Assay: log P determination
Type: physicochemical
Conditions: values marked *; no footnote carries the single asterisk; general footnote: HPLC gradient method, acetonitrile/0.1% aqueous phosphoric acid
Marks after values point to notes of the source that are not given here.
property_measured: log p

(Q) I am curious: what log p value has been reported for C[C@@H](Nc1c(-c2ccccc2Cl)c(Cl)nc2c(C(=O)NS(C)(=O)=O)cnn12)C(C)(C)C [Example 21] ?
(A) 4.36*

(Q) I am curious: what log p value has been reported for CC(C)[C@@H](C)Nc1c(-c2c(F)cc(F)cc2F)c(Cl)nc2c(C(=O)NS(C)(=O)=O)cnn12 [Example 177] ?
(A) 3.85*

(Q) I am curious: what log p value has been reported for C[C@@H](Nc1c(-c2ccc(Cl)cc2Cl)c(Cl)nc2c(C(=O)NS(C)(=O)=O)cnn12)C(C)(C)C [Example 39] ?
(A) 4.89*

(Q) I am curious: what log p value has been reported for CC1CCN(c2c(-c3c(F)cc(F)cc3Cl)c(Cl)nc3c(C(=O)NS(C)(=O)=O)cnn23)CC1 [Example 285] ?
(A) 4.34*

(Q) I am curious: what log p value has been reported for C[C@H](Nc1c(-c2c(F)cc(F)cc2Cl)c(Cl)nc2c(C(=O)NS(C)(=O)=O)cnn12)C(F)(F)F [Example 117] ?
(A) 3.56*

(Q) I am curious: what log p value has been reported for C[C@@H](Nc1c(-c2c(F)cc(Cl)cc2F)c(Cl)nc2c(C(=O)NS(C)(=O)=O)cnn12)C(C)(C)C [Example 45] ?
(A) 4.55*

(Q) I am curious: what log p value has been reported for CC1CCN(c2c(-c3c(F)cccc3Cl)c(Cl)nc3c(C(=O)NS(C)(=O)=O)cnn23)CC1 [Example 255] ?
(A) 4.2*

(Q) I am curious: what log p value has been reported for CC(C)[C@@H](C)Nc1c(-c2c(F)cc(Cl)cc2F)c(Cl)nc2c(C(=O)NS(C)(=O)=O)cnn12 [Example 213] ?
(A) 4.24*

(Q) I am curious: what log p value has been reported for CC1CCN(c2c(-c3c(F)cc(F)cc3F)c(Cl)nc3c(C(=O)NS(C)(=O)=O)cnn23)CC1 [Example 261] ?
(A) 4.07*

(Q) I am curious: what log p value has been reported for CC(C)[C@@H](C)Nc1c(-c2c(F)cc(F)cc2Cl)c(Cl)nc2c(C(=O)NS(C)(=O)=O)cnn12 [Example 201] ?
(A) 4.05*

(Q) I am curious: what log p value has been reported for CC(C)[C@@H](C)Nc1c(-c2ccccc2Cl)c(Cl)nc2c(C(=O)NS(C)(=O)=O)cnn12 [Example 189] ?
(A) 4.01*

(Q) I am curious: what log p value has been reported for CC(C)[C@@H](C)Nc1c(-c2ccc(Cl)cc2Cl)c(Cl)nc2c(C(=O)NS(C)(=O)=O)cnn12 [Example 207] ?
(A) 4.55*

(Q) I am curious: what log p value has been reported for C[C@@H](Nc1c(-c2c(F)cccc2Cl)c(Cl)nc2c(C(=O)NS(C)(=O)=O)cnn12)C(C)(C)C [Example 3] ?
(A) 4.19*

(Q) I am curious: what log p value has been reported for CC(C)[C@@H](C)Nc1c(-c2c(F)cccc2Cl)c(Cl)nc2c(C(=O)NS(C)(=O)=O)cnn12 [Example 171] ?
(A) 3.9*
